The origin of these recorded values is ChEMBL document CHEMBL1128740.

tested_on: Proto-oncogene tyrosine-protein kinase Src (Homo sapiens)
Sequence (P12931 2-536 limits assumed): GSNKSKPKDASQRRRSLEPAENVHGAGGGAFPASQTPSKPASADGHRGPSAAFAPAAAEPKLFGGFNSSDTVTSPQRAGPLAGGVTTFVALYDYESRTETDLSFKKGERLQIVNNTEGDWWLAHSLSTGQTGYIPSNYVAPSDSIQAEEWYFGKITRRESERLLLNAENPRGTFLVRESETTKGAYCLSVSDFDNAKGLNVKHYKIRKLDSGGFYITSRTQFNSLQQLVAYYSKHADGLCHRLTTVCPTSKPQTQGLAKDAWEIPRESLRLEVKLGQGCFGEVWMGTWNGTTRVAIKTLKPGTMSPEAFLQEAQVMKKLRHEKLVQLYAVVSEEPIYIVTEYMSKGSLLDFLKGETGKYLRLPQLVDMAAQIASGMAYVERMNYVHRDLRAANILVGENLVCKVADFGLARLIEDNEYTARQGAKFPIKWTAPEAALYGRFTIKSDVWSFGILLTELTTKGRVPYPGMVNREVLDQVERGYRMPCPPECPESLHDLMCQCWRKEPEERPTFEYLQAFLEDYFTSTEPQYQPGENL
measurement_notes: In vitro inhibition of the c-src tyrosine kinase activity in A431 membranes using angiotensin II as phosphate acceptor as substrate
pIC50: −log10 of the molar value.
# Lookup of reported pIC50 keyed by entry
observed_property: pIC50

CCOC(=O)C1CCN(CCC(=O)c2ccc(OCc3ccccc3)cc2)CC1
< 4.00
C=C(CN(C)C)C(=O)c1ccc(OCc2ccccc2)c(O)c1
4.30
Cc1ccc(SCC(CN(C)C)C(=O)c2ccc(OCc3ccccc3)cc2)cc1C (stereo unspecified)
< 4.00
O=C(CCN1CCCCC1)c1ccc(OCc2ccccc2)cc1
< 4.00
C=C(CN(C)C)C(=O)c1ccc(OS(=O)(=O)c2ccc(C(=O)O)cc2)cc1
< 4.00
CN(C)CC(CNNC(N)=O)C(=O)c1ccc(OCc2ccccc2)cc1 (stereo unspecified)
< 4.00
O=c1c(-c2ccc(O)cc2)coc2cc(O)cc(O)c12 [GENISTEIN]
4.12
COC(=O)c1ccccc1SCC(CN(C)C)C(=O)c1ccc(OCc2ccccc2)cc1 (stereo unspecified)
< 4.00
CN(C)CCC(=O)c1ccc(OCc2ccccc2)cc1
< 4.00
CN(C)CCC(=O)c1ccc(OCc2ccccc2)c(O)c1
< 4.30
C=C(CN1CCNCC1)C(=O)c1ccc(OCc2ccccc2)cc1
< 4.00

###

tested_on: Proto-oncogene tyrosine-protein kinase Src (Homo sapiens)
measurement_notes: In vitro inhibition of the c-src tyrosine kinase activity in A431 membranes using angiotensin II as phosphate acceptor as substrate
Format: cell membranes
pIC50: −log10 of the molar value.
# Lookup of reported pIC50 keyed by entry
observed_property: pIC50

C=C(CN(C)C)C(=O)c1ccc(OCc2ccccc2)cc1
< 4.00
CN(C)CC(CSc1ccccc1)C(=O)c1ccc(OCc2ccccc2)cc1 (stereo not drawn)
< 4.30
C=C(CN(C)C)C(=O)c1ccc(OS(=O)(=O)c2ccc(C(=O)N(C)C)cc2)cc1
< 4.30
CN(C)CC(CSCCN)C(=O)c1ccc(OCc2ccccc2)cc1 (stereo not drawn)
< 4.00
C=C(CN(C)C)C(=O)c1ccccc1
< 4.00
C=C(CN1CCCCC1)C(=O)c1ccc(OCc2ccccc2)cc1
< 4.00
C=C(CN1CCOCC1)C(=O)c1ccc(OCc2ccccc2)cc1
< 4.00
O=C(CCN1CCOCC1)c1ccc(OCc2ccccc2)cc1
< 4.00

###

tested_on: v-abl tyrosine kinase (Abelson murine leukemia virus) (UniProt P00521)
Sequence (P00521 whole entry, looked up): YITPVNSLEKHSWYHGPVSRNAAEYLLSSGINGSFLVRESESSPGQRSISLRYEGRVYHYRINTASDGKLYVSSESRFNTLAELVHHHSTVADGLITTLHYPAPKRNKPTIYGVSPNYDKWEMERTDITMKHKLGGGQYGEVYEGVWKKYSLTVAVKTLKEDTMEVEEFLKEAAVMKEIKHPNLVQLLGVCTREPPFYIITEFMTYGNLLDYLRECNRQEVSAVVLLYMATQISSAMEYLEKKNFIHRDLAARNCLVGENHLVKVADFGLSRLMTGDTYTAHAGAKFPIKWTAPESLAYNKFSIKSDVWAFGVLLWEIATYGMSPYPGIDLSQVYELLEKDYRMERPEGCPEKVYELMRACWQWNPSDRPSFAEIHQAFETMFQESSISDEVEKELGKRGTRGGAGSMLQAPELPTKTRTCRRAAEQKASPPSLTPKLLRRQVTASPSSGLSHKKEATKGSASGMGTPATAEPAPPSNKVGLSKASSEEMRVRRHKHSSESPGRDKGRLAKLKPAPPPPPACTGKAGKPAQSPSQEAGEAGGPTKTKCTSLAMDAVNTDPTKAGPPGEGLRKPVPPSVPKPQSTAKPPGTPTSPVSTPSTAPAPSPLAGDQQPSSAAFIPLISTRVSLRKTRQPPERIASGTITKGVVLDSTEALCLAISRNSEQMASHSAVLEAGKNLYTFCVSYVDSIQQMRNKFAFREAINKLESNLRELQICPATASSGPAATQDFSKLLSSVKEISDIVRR
measurement_notes: In vitro inhibition of the v-abl tyrosine kinase activity using purified v-abl kinase
# Lookup of reported IC50 keyed by entry
observed_property: IC50

C=C(CN(C)C)C(=O)c1ccc(OS(=O)(=O)c2ccc(C(=O)O)cc2)cc1
50 µM
C=C(CN(C)C)C(=O)c1ccc(OCc2ccccc2)c(O)c1
> 50 µM
CN(C)CC(CSCCN)C(=O)c1ccc(OCc2ccccc2)cc1 (stereo unspecified)
> 50 µM
CN(C)CC(CNNC(N)=O)C(=O)c1ccc(OCc2ccccc2)cc1 (stereo unspecified)
> 100 µM
COC(=O)c1ccccc1SCC(CN(C)C)C(=O)c1ccc(OCc2ccccc2)cc1 (stereo unspecified)
> 100 µM
CN(C)CC(CSc1ccccc1)C(=O)c1ccc(OCc2ccccc2)cc1 (stereo unspecified)
> 50 µM
C=C(CN(C)C)C(=O)c1ccccc1
> 100 µM
C=C(CN1CCNCC1)C(=O)c1ccc(OCc2ccccc2)cc1
> 100 µM
C=C(CN(C)C)C(=O)c1ccc(OCc2ccccc2)cc1
> 100 µM
CN(C)CCC(=O)c1ccc(OCc2ccccc2)c(O)c1
> 100 µM
CN(C)CCC(=O)c1ccc(OCc2ccccc2)cc1
> 100 µM
